Target: PI3Kα (Homo sapiens, UniProt P42336)
Construct: purchased Millipore 14-602-K
Sequence (P42336 whole entry): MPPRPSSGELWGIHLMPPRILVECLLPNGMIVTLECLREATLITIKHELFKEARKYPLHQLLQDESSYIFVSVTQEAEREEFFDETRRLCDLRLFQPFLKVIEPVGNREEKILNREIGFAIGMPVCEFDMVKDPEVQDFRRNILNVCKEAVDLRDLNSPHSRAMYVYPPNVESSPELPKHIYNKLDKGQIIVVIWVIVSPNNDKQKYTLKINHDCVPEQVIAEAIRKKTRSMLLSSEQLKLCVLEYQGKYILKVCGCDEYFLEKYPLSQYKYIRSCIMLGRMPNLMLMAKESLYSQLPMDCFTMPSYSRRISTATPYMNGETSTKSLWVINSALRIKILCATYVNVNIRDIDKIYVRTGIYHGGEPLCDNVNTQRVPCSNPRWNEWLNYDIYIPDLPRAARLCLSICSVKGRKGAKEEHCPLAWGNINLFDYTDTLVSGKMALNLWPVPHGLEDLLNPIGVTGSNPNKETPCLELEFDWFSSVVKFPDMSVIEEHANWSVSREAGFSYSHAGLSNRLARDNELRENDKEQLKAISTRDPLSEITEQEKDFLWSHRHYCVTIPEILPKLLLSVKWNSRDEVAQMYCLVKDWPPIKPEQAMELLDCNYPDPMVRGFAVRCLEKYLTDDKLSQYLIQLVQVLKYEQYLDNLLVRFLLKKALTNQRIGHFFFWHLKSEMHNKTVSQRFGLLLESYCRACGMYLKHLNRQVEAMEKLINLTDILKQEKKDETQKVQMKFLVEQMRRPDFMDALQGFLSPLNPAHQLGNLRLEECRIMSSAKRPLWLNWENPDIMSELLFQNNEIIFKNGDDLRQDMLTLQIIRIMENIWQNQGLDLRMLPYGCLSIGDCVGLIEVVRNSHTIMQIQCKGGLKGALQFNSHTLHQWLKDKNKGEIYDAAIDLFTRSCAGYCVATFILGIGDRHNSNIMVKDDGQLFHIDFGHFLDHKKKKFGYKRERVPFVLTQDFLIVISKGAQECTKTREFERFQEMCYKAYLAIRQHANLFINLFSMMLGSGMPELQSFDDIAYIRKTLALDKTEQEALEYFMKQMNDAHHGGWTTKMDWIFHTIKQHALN
Sequence (P27986 whole entry partner): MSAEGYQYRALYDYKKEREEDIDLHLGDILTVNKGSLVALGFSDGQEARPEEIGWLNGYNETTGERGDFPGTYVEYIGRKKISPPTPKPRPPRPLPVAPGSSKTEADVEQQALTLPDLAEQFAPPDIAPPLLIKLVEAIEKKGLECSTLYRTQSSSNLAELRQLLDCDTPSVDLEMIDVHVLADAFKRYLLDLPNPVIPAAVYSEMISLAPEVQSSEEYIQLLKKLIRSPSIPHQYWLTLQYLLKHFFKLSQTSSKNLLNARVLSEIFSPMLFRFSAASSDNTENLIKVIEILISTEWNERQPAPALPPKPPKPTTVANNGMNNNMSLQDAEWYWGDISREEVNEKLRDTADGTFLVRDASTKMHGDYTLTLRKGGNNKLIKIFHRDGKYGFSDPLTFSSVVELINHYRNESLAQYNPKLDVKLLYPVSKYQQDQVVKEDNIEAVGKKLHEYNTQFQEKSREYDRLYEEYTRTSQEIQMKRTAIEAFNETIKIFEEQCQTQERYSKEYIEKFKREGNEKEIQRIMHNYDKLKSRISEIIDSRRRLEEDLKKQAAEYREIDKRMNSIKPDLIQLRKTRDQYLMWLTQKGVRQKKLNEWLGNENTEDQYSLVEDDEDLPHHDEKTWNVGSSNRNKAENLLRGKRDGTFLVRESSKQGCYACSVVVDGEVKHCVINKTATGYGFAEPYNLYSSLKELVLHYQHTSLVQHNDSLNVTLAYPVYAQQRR
Experiment: In vitro enzymatic activity test (ADP-Glo lipid kinase), PI3Kα wild type
Format: biochemical
Conditions: Table 17, in vitro screening; read-out: PI3Kα IC50
pIC50: −log10 of the molar value.
MEASURED_METRIC: pIC50

>>> df
                         compound_structure  reported_result
0  CNC(=O)[C@H](C)Cn1cnc2ccc(-c3cnc(OC)c(NS(=O)(=O)c4ccc(F)cc4F)c3)cc2c1=O             8.76

---

Target: PI3Kδ (Homo sapiens, UniProt O00329)
Sequence (O00329 whole entry): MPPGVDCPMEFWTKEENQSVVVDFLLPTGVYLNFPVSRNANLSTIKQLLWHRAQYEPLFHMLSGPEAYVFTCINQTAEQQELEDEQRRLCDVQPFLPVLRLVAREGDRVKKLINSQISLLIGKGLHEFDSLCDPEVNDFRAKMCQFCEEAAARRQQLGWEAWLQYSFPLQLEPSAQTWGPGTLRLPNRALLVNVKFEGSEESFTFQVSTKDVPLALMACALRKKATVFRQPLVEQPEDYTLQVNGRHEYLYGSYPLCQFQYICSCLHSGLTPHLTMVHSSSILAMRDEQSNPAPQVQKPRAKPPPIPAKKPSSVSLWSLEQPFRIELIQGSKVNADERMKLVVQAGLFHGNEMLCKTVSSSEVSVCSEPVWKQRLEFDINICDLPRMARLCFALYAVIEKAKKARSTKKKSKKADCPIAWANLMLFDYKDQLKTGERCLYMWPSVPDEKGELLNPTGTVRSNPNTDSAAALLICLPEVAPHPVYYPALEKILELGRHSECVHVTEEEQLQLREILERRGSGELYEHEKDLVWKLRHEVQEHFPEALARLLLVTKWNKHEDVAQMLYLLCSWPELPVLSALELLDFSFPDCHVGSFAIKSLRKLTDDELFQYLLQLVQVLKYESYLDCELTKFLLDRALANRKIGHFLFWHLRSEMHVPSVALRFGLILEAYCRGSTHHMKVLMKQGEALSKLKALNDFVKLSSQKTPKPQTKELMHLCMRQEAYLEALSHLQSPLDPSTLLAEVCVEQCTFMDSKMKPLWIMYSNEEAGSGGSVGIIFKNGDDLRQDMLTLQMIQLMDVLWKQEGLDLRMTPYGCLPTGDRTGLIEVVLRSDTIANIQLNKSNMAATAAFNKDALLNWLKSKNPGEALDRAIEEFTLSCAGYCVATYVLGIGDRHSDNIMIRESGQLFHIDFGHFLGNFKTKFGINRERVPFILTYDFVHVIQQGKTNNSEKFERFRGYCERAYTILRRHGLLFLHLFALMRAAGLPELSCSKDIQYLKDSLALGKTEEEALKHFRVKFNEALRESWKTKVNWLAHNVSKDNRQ
Sequence (P27986 whole entry partner): as the sequence (P27986 whole entry partner) above
MEASURED_METRIC: IC50 (µM)

                         compound_structure  measured_metric  reported_result
0  CNC(=O)[C@H](C)Cn1cnc2ccc(-c3cnc(OC)c(NS(=O)(=O)c4ccc(F)cc4F)c3)cc2c1=O             IC50           0.0253
